// provenance: ChEMBL document CHEMBL5360655

assay comment: AUC(0 to t) in BALB/c mouse at 10 mg/kg, iv measured for 24 hrs by LC-MS/MS analysis
Assay type: ADME, organism-based
Set-up: time 24 hrs, dose 10 mg/kg, route iv
measurement context: in vivo
readout kind: AUC(0-t) at 24 h (ng·h/mL)

- O=C(NCC1(N2CCN(c3ccccc3)CC2)CCOCC1)c1cccnc1Sc1ccccc1: 310
- CS(=O)(=O)c1ccc(-c2ncc(C(=O)NCc3cn(-c4cc(Cl)ccn4)nn3)s2)cc1: 77900
- CS(=O)(=O)c1ccc(-c2nc(C(=O)NCc3cn(-c4cc(Br)ccn4)nn3)cs2)cc1: 16600

(A) CS(=O)(=O)c1ccc(-c2ncc(C(=O)NCc3cn(-c4cc(Br)ccn4)nn3)s2)cc1
(B) CS(=O)(=O)c1ccc(-c2nc(C(=O)NCc3cn(-c4cc(Cl)ccn4)nn3)cs2)cc1
[Q] Problem: Given the entries A and B , determine which has the lower reported AUC(0-t) at 24 h. Field: selected label. Fill in the label of the entry you choose.
[A] B
(B: 5080 ng·h/mL, A: 40900 ng·h/mL)

###

assay comment: Tmax in BALB/c mouse at 10 mg/kg, ip measured for 24 hrs by LC-MS/MS analysis
Assay type: ADME, organism-based
measurement context: in vivo
readout kind: Tmax (h)

Solved entries (count: 2):
• CS(=O)(=O)c1ccc(-c2ncc(C(=O)NCc3cn(-c4cc(Cl)ccn4)nn3)s2)cc1 = 4.67
• CS(=O)(=O)c1ccc(-c2nc(C(=O)NCc3cn(-c4cc(Br)ccn4)nn3)cs2)cc1 = 3

(P) CS(=O)(=O)c1ccc(-c2nc(C(=O)NCc3cn(-c4cc(Cl)ccn4)nn3)cs2)cc1
(Q) CS(=O)(=O)c1ccc(-c2ncc(C(=O)NCc3cn(-c4cc(Br)ccn4)nn3)s2)cc1
[Q] Which of the two items, P and Q , has the greater recorded Tmax? Field: selected label. Fill in the label of the entry you choose.
[A] Q

###

subject of test: P2X purinoceptor 7 (Homo sapiens) (UniProt Q99572)
Sequence (Q99572 whole entry): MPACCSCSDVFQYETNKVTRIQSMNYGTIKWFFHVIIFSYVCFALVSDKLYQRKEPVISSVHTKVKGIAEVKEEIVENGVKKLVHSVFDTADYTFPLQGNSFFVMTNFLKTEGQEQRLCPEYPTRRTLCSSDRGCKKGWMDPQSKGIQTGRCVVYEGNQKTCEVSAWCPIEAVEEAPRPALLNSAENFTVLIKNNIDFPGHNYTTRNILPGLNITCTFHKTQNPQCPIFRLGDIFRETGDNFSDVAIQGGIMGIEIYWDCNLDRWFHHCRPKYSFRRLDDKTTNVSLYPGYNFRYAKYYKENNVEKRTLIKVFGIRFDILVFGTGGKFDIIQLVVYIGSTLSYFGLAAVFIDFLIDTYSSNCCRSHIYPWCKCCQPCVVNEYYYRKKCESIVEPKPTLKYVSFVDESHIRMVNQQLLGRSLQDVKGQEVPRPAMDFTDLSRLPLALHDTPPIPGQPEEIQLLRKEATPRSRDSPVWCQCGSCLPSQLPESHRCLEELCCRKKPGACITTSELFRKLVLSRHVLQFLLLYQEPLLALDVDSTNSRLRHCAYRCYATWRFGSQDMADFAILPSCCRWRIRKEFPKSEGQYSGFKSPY
assay comment: Antagonist activity at human P2X7 receptor expressed in HEK293 cells assessed as inhibition of ATP-induced receptor pore formation at 1 uM by propidium iodide dye uptake based fluorescence analysis
Format: cell-based
readout kind: inhibition

* CC(C)Cc1ccc(-c2ccc(Cl)c(C(=O)NCc3cn(-c4cc(Cl)ccn4)nn3)c2)cc1 | 39.2%
* CS(=O)(=O)c1ccc(-c2ncc(C(=O)NCc3cn(-c4ccc(Br)cn4)nn3)s2)cc1 | 33.3%

Entry "O=C(NCc1cn(-c2cc(Cl)ccn2)nn1)c1cc(-c2cccc3ncccc23)ccc1Cl" ; assay system P2X purinoceptor 7 (Homo sapiens) (UniProt Q99572); inhibition recorded at 33.1%

###

subject of test: P2X purinoceptor 7 (Homo sapiens) (UniProt Q99572)
assay comment: Antagonist activity at human P2X7 receptor expressed in HEK293 cells assessed as inhibition of ATP-induced receptor pore formation at 200 nM by propidium iodide dye uptake based fluorescence analysis
Type: cell-based
Activity calls are given as the source filed them. No cut-off for these calls is given here.
readout kind: inhibition

- CS(=O)(=O)c1ccc(-c2ncc(C(=O)NCc3cn(-c4cc(F)ccn4)nn3)s2)cc1: 37.8%
- Nc1cccc(-c2ncc(C(=O)NCc3cn(-c4cc(Cl)ccn4)nn3)s2)c1: 9.8%
- CS(=O)(=O)c1cccc(-c2ccc(Cl)c(C(=O)NCc3cn(-c4cc(Cl)ccn4)nn3)c2)c1: inactive
- O=C(NCc1cn(-c2cc(Cl)ccn2)nn1)c1cc(-c2cccc3[nH]ccc23)ccc1Cl: 15.6%
- CS(=O)(=O)c1ccc(-c2nc(C(=O)NCc3cn(-c4cccc(Br)n4)nn3)cs2)cc1: 10.1%

Entry "CS(=O)(=O)c1ccc(-c2nc(C(=O)NCc3cn(-c4ccc(Br)cn4)nn3)cs2)cc1" ; assay system P2X purinoceptor 7 (Homo sapiens) (UniProt Q99572); inhibition recorded at 11%

Entry "COc1ccc(-c2ccc(Cl)c(C(=O)NCc3cn(-c4cc(Cl)ccn4)nn3)c2)cc1OC" ; assay system P2X purinoceptor 7 (Homo sapiens) (UniProt Q99572); inhibition recorded at 35.7%

Entry "CS(=O)(=O)c1ccc(-c2nc(C(=O)NCc3cn(-c4cc(F)ccn4)nn3)cs2)cc1" ; assay system P2X purinoceptor 7 (Homo sapiens) (UniProt Q99572); inhibition recorded at inactive

Entry "CS(=O)(=O)c1ccc(-c2csc(C(=O)NCc3cn(-c4cc(Cl)ccn4)nn3)n2)cc1" ; assay system P2X purinoceptor 7 (Homo sapiens) (UniProt Q99572); inhibition recorded at 5%

Entry "CC(C)Cc1ccc(-c2ccc(Cl)c(C(=O)NCc3cn(-c4cc(Cl)ccn4)nn3)c2)cc1" ; assay system P2X purinoceptor 7 (Homo sapiens) (UniProt Q99572); inhibition recorded at 20.7%

Entry "O=C(NCc1cn(-c2cc(Cl)ccn2)nn1)c1cc(-c2cccc3ncccc23)ccc1Cl" ; assay system P2X purinoceptor 7 (Homo sapiens) (UniProt Q99572); inhibition recorded at 13.6%

Entry "CS(=O)(=O)c1ccc(-c2ncc(C(=O)NCc3cn(-c4cc(Cl)ccn4)nn3)s2)cc1" ; assay system P2X purinoceptor 7 (Homo sapiens) (UniProt Q99572); inhibition recorded at 38.2%

Entry "CS(=O)(=O)Nc1cccc(-c2ccc(Cl)c(C(=O)NCc3cn(-c4cc(Cl)ccn4)nn3)c2)c1" ; assay system P2X purinoceptor 7 (Homo sapiens) (UniProt Q99572); inhibition recorded at 30.8%

Entry "O=C(NCc1cn(-c2cc(Cl)ccn2)nn1)c1cc(-c2cccc3cc[nH]c23)ccc1Cl" ; assay system P2X purinoceptor 7 (Homo sapiens) (UniProt Q99572); inhibition recorded at inactive

Entry "Cc1cc(F)ccc1-c1ccc(Cl)c(C(=O)NCc2cn(-c3cc(Cl)ccn3)nn2)c1" ; assay system P2X purinoceptor 7 (Homo sapiens) (UniProt Q99572); inhibition recorded at 13.4%

###

subject of test: P2X purinoceptor 7 (Homo sapiens)
assay comment: Antagonist activity at human P2X7 receptor expressed in HEK293 cells assessed as inhibition of ATP-induced receptor pore formation by propidium iodide dye uptake based fluorescence analysis
Type: cell-based
pIC50: −log10 of the molar value.
readout kind: pIC50

Solved entries (count: 3):
* CS(=O)(=O)c1ccc(-c2ncc(C(=O)NCc3cn(-c4cc(Cl)ccn4)nn3)s2)cc1 | 6.53
* CS(=O)(=O)c1ccc(-c2nc(C(=O)NCc3cn(-c4cccc(Br)n4)nn3)cs2)cc1 | 6.15
* CC(C)S(=O)(=O)c1ccc(-c2ncc(C(=O)NCc3cn(-c4cc(Cl)ccn4)nn3)s2)cc1 | 6.18

(1) O=C(NCc1cn(-c2cc(Cl)ccn2)nn1)c1cnc(-c2cccc(NS(=O)(=O)C3CC3)c2)s1
(2) COc1ccc(-c2ccc(Cl)c(C(=O)NCc3cn(-c4cc(Cl)ccn4)nn3)c2)cc1OC
[Q] Problem: Given the entries 1 and 2 , determine which has the lower reported pIC50. Field: selected label. Fill in the label of the entry you choose.
[A] 1
(1: 6.18, 2: 6.55)

###

assay comment: Half life in human liver microsomes
Type: ADME, Microsome
readout kind: half-life (h)

(I) COc1ccc(-c2ccc(Cl)c(C(=O)NCc3cn(-c4cc(Cl)ccn4)nn3)c2)cc1OC
(II) CC(C)S(=O)(=O)c1ccc(-c2ncc(C(=O)NCc3cn(-c4cc(Cl)ccn4)nn3)s2)cc1
[Q] Which of the two items, I and II , has the greater recorded half-life? Field: selected label. Fill in the label of the entry you choose.
[A] I
(I: 1.63 h, II: 0.717 h)

###

assay comment: Half life in mouse liver microsomes
Type: ADME, Microsome
readout kind: half-life (min)

- COc1ccc(-c2ccc(Cl)c(C(=O)NCc3cn(-c4cc(Cl)ccn4)nn3)c2)cc1OC: 25.3
- O=C(NCc1cn(-c2cc(Cl)ccn2)nn1)c1cnc(-c2ccc(NS(=O)(=O)N3CCOCC3)cc2)s1: 35.4
- O=C(NCc1cn(-c2cc(Cl)ccn2)nn1)c1cnc(-c2cccc(NS(=O)(=O)N3CCOCC3)c2)s1: 25.4

###

Collected inhibition values appear next to each entry.
subject of test: P2X purinoceptor 7 (Mus musculus) (UniProt Q9Z1M0)
Sequence (Q9Z1M0 whole entry): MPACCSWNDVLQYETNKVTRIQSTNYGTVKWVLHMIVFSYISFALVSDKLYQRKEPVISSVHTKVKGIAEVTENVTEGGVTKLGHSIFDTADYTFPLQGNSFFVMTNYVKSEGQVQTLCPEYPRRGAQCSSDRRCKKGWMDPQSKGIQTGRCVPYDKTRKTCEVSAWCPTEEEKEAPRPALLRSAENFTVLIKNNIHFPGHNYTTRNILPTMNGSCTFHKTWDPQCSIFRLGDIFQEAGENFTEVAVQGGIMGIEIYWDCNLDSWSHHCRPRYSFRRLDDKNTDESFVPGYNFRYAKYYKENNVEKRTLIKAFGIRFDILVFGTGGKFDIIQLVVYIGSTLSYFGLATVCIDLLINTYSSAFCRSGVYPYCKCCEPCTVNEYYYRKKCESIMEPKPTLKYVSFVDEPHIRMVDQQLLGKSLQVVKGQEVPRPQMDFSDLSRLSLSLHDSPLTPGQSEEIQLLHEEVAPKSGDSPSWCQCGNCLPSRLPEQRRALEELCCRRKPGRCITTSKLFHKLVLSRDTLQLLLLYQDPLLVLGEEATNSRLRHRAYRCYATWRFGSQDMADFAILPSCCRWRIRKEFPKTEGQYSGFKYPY
assay comment: Antagonist activity at mouse P2X7 receptor expressed in HEK293 cells assessed as inhibition of ATP-induced receptor pore formation at 10 uM by propidium iodide dye uptake based fluorescence analysis
Assay type: cell-based
measurement context: filed as antagonist

Solved entries (count: 2):
- O=C(NCc1cn(-c2cc(Cl)ccn2)nn1)c1cc(-c2cccc3ncccc23)ccc1Cl: > 50%
- CS(=O)(=O)c1cccc(-c2ccc(Cl)c(C(=O)NCc3cn(-c4cc(Cl)ccn4)nn3)c2)c1: > 50%

// recorded inhibition for "CS(=O)(=O)c1ccc(-c2ccc(Cl)c(C(=O)NCc3cn(-c4cc(Cl)ccn4)nn3)c2)cc1" : > 50%

###

subject of test: P2X purinoceptor 7 (Homo sapiens) (UniProt Q99572)
assay comment: Antagonist activity at human P2X7 receptor expressed in HEK293 cells assessed as inhibition of ATP-induced receptor pore formation at 10 uM by propidium iodide dye uptake based fluorescence analysis
Format: cell-based
measurement context: filed as antagonist
Collected inhibition values appear next to each entry.

Solved entries (count: 2):
* CS(=O)(=O)c1ccc(-c2ccc(Cl)c(C(=O)NCc3cn(-c4cc(Cl)ccn4)nn3)c2)cc1 | > 50%
* O=C(NCc1cn(-c2cc(Cl)ccn2)nn1)c1cc(-c2cccc3ncccc23)ccc1Cl | > 50%

As a next step, examine the compound that follows.
// recorded inhibition for "CS(=O)(=O)c1cccc(-c2ccc(Cl)c(C(=O)NCc3cn(-c4cc(Cl)ccn4)nn3)c2)c1" : > 50%
